- EXPERIMENTAL CONDITIONS: 318.15 K; 101.32 kPa; Liquid; Vibrating tube method
# mass density values compiled below
Report the figure in kg/m3 without appending any unit label.

// below: answered molecules
>>> result_value("CCCCCCCC [octane]")
682.16
>>> result_value("CCCCCCCCC [nonane]")
698.09
>>> result_value("CCOC(C)=O [ethyl acetate]")
869.6
>>> result_value("CCCCCCCCCC [decane]")
710.9

According to the records, this molecule CCCCCC [hexane] displays mass density of 636.5

Record summary for CCCCCCC [heptane] : reported mass density = 662.06

====

Entries and their measured mass density follow.
- EXPERIMENTAL CONDITIONS: 298.15 K; 101.32 kPa; Liquid; Vibrating tube method
Numbers after ± are expanded uncertainties.
The answer should read as a number with its unit following.

Here's what some known entries look like.
>>> result_value("CCCCCCCCCC")
"726.2 ± 0.56 kg/m3"
>>> result_value("CCCCCCCC")
"698.6 ± 0.54 kg/m3"
>>> result_value("CCCCCC")
"654.9 ± 0.51 kg/m3"
>>> result_value("CCCCC")
"621.35 ± 0.49 kg/m3"
>>> result_value("CCCCCCC")
"679.48 ± 0.32 kg/m3"
>>> result_value("CCOC(C)=O [ethyl acetate]")
"894.4 ± 0.72 kg/m3"

Kindly consider the entry below.
Entry CCCCCCCCC ; mass density = 713.85 ± 0.55 kg/m3

FYI, the data here is from the NIST ThermoML archive (doi:10.1021/je100832h).
